Where do these numbers come from? They come from patent US5324725A.

# System: Histamine-induced anaphylactoid reactions
# assay.summary: Inhibition of anaphylactoid cutaneous reaction induced by histamine
# Format: in vivo, rat (Sprague-Dawley)
# particulars: Rattus norvegicus, 1 h; rats, 2 × 10^-5 mol/kg p.o., one hour before challenge; histamine intradermal
# Method: 1. Determination of the inhibition of passive cutaneous anaphylaxis (P.C.A.) and of the anaphylactoid cutaneous reaction induced by histamine. […] The oedematous anaphylactic (P.C.A.) and anaphylactoid (histamine-induced) reactions caused by the challenging i.v. ovalbumin injection, which are manifested by oedema formation, swelling and exudation of blue dye, were evaluated 30 minutes after challenge by the i.v. ovalbumin injection. […]
A collection of compounds and their measured inhibition in vivo at 20 µmol/kg
// note: answer is a bare numeric in %

Look over these answered cases.
Cc1ccnc(N2CCN(CCc3c(C)n4c5c(cc(Cc6ccccc6)cc35)CCC4)CC2)c1 | 30
Cc1ccnc(N2CCN(CCc3c(-c4ccc(F)cc4)n4c5c(cccc35)CCC4)CC2)c1 | 20
Cc1ccnc(N2CCN(CCc3c(C)n4c5c(cc([N+](=O)[O-])cc35)CCC4)CC2)c1 | 75

**Q:** Report measured inhibition in vivo at 20 µmol/kg; entry is Cc1ccnc(N2CCN(CCc3c(C)n4c5c(cc(Br)cc35)CCC4)CC2)c1
**A:** 80

**Q:** Fill in inhibition in vivo at 20 µmol/kg for record Cc1ccnc(N2CCN(CCc3c(C)n4c5c(cc(N(C)C)cc35)CCC4)CC2)c1
**A:** 82

**Q:** Identify inhibition in vivo at 20 µmol/kg associated with the compound Cc1ccnc(N2CCN(CCc3c(C)n4c5c(cc(C(=O)C(C)C)cc35)CCC4)CC2)c1
**A:** 95

----------
# Test system: Histamine-induced anaphylactoid reactions
# assay.summary: Inhibition of anaphylactoid cutaneous reaction induced by histamine
# Format: in vivo, rat (Sprague-Dawley)
# particulars: Rattus norvegicus, 1 h; rats, 2 × 10^-5 mol/kg p.o., one hour before challenge; histamine intradermal
readout.label: inhibition in vivo at 20 µmol/kg (%)
Provide only the numeric value, understood in %.

Here is how some compounds turned out for inhibition in vivo at 20 µmol/kg.
Cc1ccnc(N2CCN(CCc3c(C)n4c5c(ccc(Cl)c35)OCC4)CC2)c1 [Example 35] | 58
Cc1ccnc(N2CCN(CCc3c(C)n4c5c(cc(N)cc35)CCC4)CC2)c1 [Example 20] | 95
COc1ccc(C2CCc3cccc4c(CCN5CCN(c6cc(C)ccn6)CC5)c(C)n2c34)cc1 (stereo not drawn) [Example 59] | 95
Cc1c(CCN2CCN(c3ccccn3)CC2)c2cccc3c2n1CCC3 [Example 37] | 58

**Q:** Please indicate inhibition in vivo at 20 µmol/kg recorded for CCCCC1CCc2cc(O)cc3c(CCN4CCN(c5cc(C)ccn5)CC4)c(C)n1c23 (stereo not drawn) [Example 76]
**A:** 100

**Q:** Retrieve inhibition in vivo at 20 µmol/kg measured for Cc1ccnc(N2CCN(CCc3c(C)n4c5c(cc(NC(=O)C(C)C)cc35)CCC4)CC2)c1 [Example 60] and print it.
**A:** 95

**Q:** Note down inhibition in vivo at 20 µmol/kg recorded for Cc1ccnc(N2CCN(CCc3c(C)n4c5c(cccc35)CCC4)CC2)c1 [Example 1]
**A:** 85

**Q:** Dear colleague, please send me the reported inhibition in vivo at 20 µmol/kg for Cc1ccnc(N2CCN(CCc3c(CO)n4c5c(cccc35)CCC4)CC2)c1 [Example 16] when you can.
**A:** 73

**Q:** Provide only the value of recorded inhibition in vivo at 20 µmol/kg for CCc1c(C(O)CN2CCN(c3cc(C)ccn3)CC2)c2cccc3c2n1CCC3 (stereo not drawn) [Example 14]
**A:** 25

----------
# experimental.system: histamine (H1) receptor (Cavia porcellus)
# Construct: isolated smooth muscle of the guinea-pig ileum; from tissue; host or cells: isolated ileum segments of Dunkin Hartley guinea-pigs
# assay.summary: Antihistamine (H1) effect: inhibition of histamine-induced contractions of isolated guinea-pig ileum in vitro
# Format: cell-based, guinea-pig (Dunkin Hartley)
# particulars: histamine 5 × 10^-6 mol/l, test substance 10^-6 mol/l, after 10 min. (after washing); read-out: in vitro (H1) receptor antagonism % inhibitory effect on histamine-induced contractions of the Ileum, after 10 min.
inhibition at 1 µM of 90% or higher: Fulfilled. Under 90%: Not fulfilled.

Illustrative cases are given below, each with its answer.
COc1cccc(N2CCN(CCc3c(C)n4c5c(cccc35)CCC4)CC2)c1 | Not fulfilled
Cc1ccnc(N2CCN(CCc3c(C)n4c5c(cc(Br)cc35)CCC4)CC2)c1 | Not fulfilled

**Q:** In plain terms: is recorded inhibition at 1 µM at least 90% for Cc1ccnc(N2CCN(CCc3c(CO)n4c5c(cccc35)CCC4)CC2)c1 ?
**A:** Not fulfilled

**Q:** Entry CC(=O)Oc1cc2c3c(c1)c(CCN1CCN(c4cc(C)ccn4)CC1)c(C)n3CCC2 : is its inhibition at 1 µM no less than 90%?
**A:** Fulfilled

**Q:** Could you please find out whether Cc1ccnc(N2CCN(CCc3c(C)n4c5c(cccc35)C(C)CC4)CC2)c1 (centres unmarked) has inhibition at 1 µM that meets 90% or exceeds it?
**A:** Not fulfilled

**Q:** For this molecule, is measured inhibition at 1 µM 90% or higher? CC(=O)c1cc2c3c(c1)c(CCN1CCN(c4cc(C)ccn4)CC1)c(C)n3CCC2
**A:** Fulfilled

----------
# experimental.system: cyclooxygenase (Mus musculus, UniProt P22437)
# Construct: A cell suspension containing peritoneal cells of male mice 8-10 weeks old was obtained; endogenous in cells; host or cells: mouse peritoneal macrophages (male mice 8-10 weeks old), zymosan-stimulated
# Sequence (P22437 27-602): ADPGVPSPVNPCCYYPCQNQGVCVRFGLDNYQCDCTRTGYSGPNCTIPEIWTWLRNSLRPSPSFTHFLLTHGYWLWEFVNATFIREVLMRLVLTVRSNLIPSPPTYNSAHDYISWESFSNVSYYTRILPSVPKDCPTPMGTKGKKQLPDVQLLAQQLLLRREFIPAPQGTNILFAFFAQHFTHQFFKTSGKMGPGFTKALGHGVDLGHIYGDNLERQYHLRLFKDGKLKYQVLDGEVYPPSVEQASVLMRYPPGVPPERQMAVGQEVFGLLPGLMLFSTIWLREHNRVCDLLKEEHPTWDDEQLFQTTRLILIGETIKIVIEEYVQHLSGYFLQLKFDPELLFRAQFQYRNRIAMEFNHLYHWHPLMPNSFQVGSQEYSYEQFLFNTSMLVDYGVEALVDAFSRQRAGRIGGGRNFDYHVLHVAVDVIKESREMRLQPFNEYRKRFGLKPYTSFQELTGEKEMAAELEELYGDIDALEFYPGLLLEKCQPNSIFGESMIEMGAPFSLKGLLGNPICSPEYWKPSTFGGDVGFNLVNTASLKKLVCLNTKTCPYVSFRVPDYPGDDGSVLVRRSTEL
# assay.summary: Cyclooxygenase inhibition: release of 6-keto-PGF1 α from zymosan-stimulated mouse peritoneal macrophage cells
# Type: cell-based
# particulars: 10^-5 mol/l, read-out: In vitro % inhibition effect on the release of 6-keto-PGF1 α
readout.label: inhibition at 10 µM (%)
Enter your answer as a number in %; do not include the unit.

Consider the worked cases shown below.
CCCCCCCC1CCc2cccc3c(CCN4CCN(c5cc(C)ccn5)CC4)c(C)n1c23 (stereo not shown) [Example 4] | 20
CCCCC1CCc2cc(C(=O)C(C)C)cc3c(CCN4CCN(c5cc(C)ccn5)CC4)c(C)n1c23 (stereo not shown) [Example 23] | 43
Cc1ccnc(N2CCN(CCc3c(C)n4c5c(cc(NC(=O)c6ccccc6)cc35)CCC4)CC2)c1 [Example 25] | 24

Next up:
**Q:** Identify measured inhibition at 10 µM obtained with cyclooxygenase (Mus musculus, UniProt P22437) for CCCCC1CCc2cc(O)cc3c(CCN4CCN(c5cc(C)ccn5)CC4)c(C)n1c23 (stereo not shown) [Example 76] .
**A:** 67

----------
# experimental.system: histamine (H1) receptor (Cavia porcellus, UniProt P31389)
# Construct: isolated smooth muscle of the guinea-pig ileum; from tissue; host or cells: isolated ileum segments of Dunkin Hartley guinea-pigs
# Sequence (P31389 whole entry): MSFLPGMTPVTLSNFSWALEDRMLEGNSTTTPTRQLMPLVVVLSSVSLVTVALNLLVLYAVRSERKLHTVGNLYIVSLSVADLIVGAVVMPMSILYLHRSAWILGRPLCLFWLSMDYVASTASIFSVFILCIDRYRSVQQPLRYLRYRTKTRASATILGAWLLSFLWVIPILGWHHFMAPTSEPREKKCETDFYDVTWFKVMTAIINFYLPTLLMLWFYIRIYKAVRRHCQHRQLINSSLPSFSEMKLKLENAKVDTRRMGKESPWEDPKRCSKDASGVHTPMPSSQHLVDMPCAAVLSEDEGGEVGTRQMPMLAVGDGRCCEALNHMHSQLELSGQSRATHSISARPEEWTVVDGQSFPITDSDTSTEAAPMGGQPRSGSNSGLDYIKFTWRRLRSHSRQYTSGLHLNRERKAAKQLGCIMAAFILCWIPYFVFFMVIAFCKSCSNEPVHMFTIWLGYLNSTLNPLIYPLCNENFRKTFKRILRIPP
# assay.summary: Antihistamine (H1) effect: inhibition of histamine-induced contractions of isolated guinea-pig ileum in vitro
# Format: cell-based, guinea-pig (Dunkin Hartley)
# particulars: histamine 5 × 10^-6 mol/l, test substance 10^-6 mol/l, after 10 min. (after washing); read-out: in vitro (H1) receptor antagonism % inhibitory effect on histamine-induced contractions of the Ileum, after 10 min.
readout.label: inhibition at 1 µM (%)
Answer format: numeric, % implied, no suffix.

**Q:** Consider the compound Cc1ccnc(N2CCN(CCc3c(C)n4c5c(ccc(C(=O)C(C)C)c35)SCC4)CC2)c1 . State its measured inhibition at 1 µM.
**A:** 83

**Q:** # return recorded inhibition at 1 µM for input COc1ccc(C2CCc3cc(OC)cc4c(CCN5CCN(c6cc(C)ccn6)CC5)c(C)n2c34)cc1 (centres unmarked)
**A:** 48

----------
# assay.summary: Determination of the minimum toxic dose
# Parameters: species or system male mice
# particulars: mouse, in vivo, po, 300 mg/kg, 1440 min
Quick reference: Minimum toxic dose (lowest dose which caused death or severe toxic symptoms) of the listed items.
The response must be a number in mg/kg with no trailing unit.

Answered cases to consult:
Cc1c(CCN2CCC(C(=O)c3ccccc3)CC2)c2cccc3c2n1CCC3C (stereo not drawn) [Example 56] | 300
Cc1ccnc(N2CCN(CCc3cn4c5c(cccc35)CCC4)CC2)c1 [Example 13] | 100
Cc1ccnc(N2CCN(CCc3c(C)n4c5c(cc(C)cc35)CCC4)CC2)c1 [Example 54] | 300
Cc1ccnc(N2CCN(CCc3c(C)n4c5c(cccc35)C(C)CC4)CC2)c1 (stereo not drawn) [Example 57] | 300
Cc1ccnc(N2CCN(CCc3c(C)n4c5c(cccc35)CCC4)CC2)c1 [Example 1] | 100
Cc1ccnc(N2CCN(CCc3c(C)n4c5c(ccc(Cl)c35)OCC4)CC2)c1 [Example 35] | 300
Cc1ccc(N2CCN(CCc3c(C)n4c5c(cccc35)CCC4)CC2)nc1 [Example 42] | 100
Cc1ccnc(N2CCN(CCc3c(-c4ccccc4)n4c5c(cccc35)CCC4)CC2)c1 [Example 40] | 300
CCc1c(C(O)CN2CCN(c3cc(C)ccn3)CC2)c2cccc3c2n1CCC3 (stereo not drawn) [Example 14] | 300
Cc1cc2c3c(c1)c(CCN1CCC(C(=O)c4ccc(F)cc4)CC1)c(C)n3CCC2 [Example 55] | 300

**Q:** Provide only the value of recorded Minimum toxic dose (lowest dose which caused death or severe toxic symptoms) for Cc1ccnc(N2CCN(CCc3c(C)n4c5c(cccc35)CCC4c3ccccc3)CC2)c1 (stereo not drawn) [Example 3]
**A:** 300

**Q:** Supply reported Minimum toxic dose (lowest dose which caused death or severe toxic symptoms) belonging to this compound: Cc1ccnc(N2CCN(CCc3c(C)n4c5c(cccc35)SCC4)CC2)c1 [Example 11]
**A:** 100
